# melting point values compiled below
Quick note: give the figure in °C, leave out the unit.

[[record]]
compound = "CC1(c2cc(NC(=O)c3ncc(Cl)cc3Cl)ccc2F)N=C(N)COC1F (single isomer, unassigned) [Compound 128]"
reported_value = 93.3


API: the following record is the query input.
Find the recorded melting point belonging to C[C@]1(c2cccc(NC(=O)c3ccc(Cl)cn3)c2)N=C(N)CO[C@@H]1F (single isomer, unassigned) [Compound 86] and report it.
157.7

###

System: Abeta 1-42
Assay: Cellular αLisa assay in SKNBE2 cells, Abeta 1-42
Type: cell-based, human
Details: Homo sapiens, SKNBE2, 18 h, incubated for 18 hours, read-out: Cellular αLisa assay in SKNBE2 cells Abeta 42 pIC50 (converted)
observable: IC50 (nM)
Quick note: give the figure in nM, leave out the unit.

Past entries and their recorded results:
[[record]]
compound = "C[C@]1(c2cc(NC(=O)c3ncc(C#N)cc3Cl)ccc2F)N=C(N)CO[C@]1(F)C(F)(F)F"
assayed_target = "Abeta 1-42"
output_unit = "nM"
reported_value = 6.92

[[record]]
compound = "NC1=N[C@@](c2cccc(NC(=O)c3ncc(Cl)cc3Cl)c2)(C2CC2)[C@@H](F)OC1"
assayed_target = "Abeta 1-42"
output_unit = "nM"
reported_value = 28.8

[[record]]
compound = "CC1(c2cccc(-c3cncc(C#N)c3)c2)N=C(N)COC1C(F)(F)F (centres unmarked)"
assayed_target = "Abeta 1-42"
output_unit = "nM"
reported_value = 135

[[record]]
compound = "N#Cc1cncc(-c2cccc([C@@]3(C4CC4)N=C(N)CO[C@H]3C(F)(F)F)c2)c1"
assayed_target = "Abeta 1-42"
output_unit = "nM"
reported_value = 49


Find the recorded IC50 belonging to `COc1ccc(C(=O)Nc2ccc(F)c([C@@]3(C)N=C(N)CO[C@@]3(F)C(F)(F)F)c2)nc1` and report it.
25.1

Find the recorded IC50 belonging to `C[C@]1(c2cc(NC(=O)c3ncc(C#N)cc3Cl)ccc2F)N=C(N)CO[C@@]1(F)C(F)(F)F` and report it.
107

Find the recorded IC50 belonging to `Cc1cc(Cl)cnc1C(=O)Nc1cccc([C@@]2(C3CC3)N=C(N)CO[C@H]2F)c1` and report it.
61.7

Find the recorded IC50 belonging to `C[C@@]1(c2cccc(-c3cncnc3)c2)COC2(CC2)C(N)=N1` and report it.
195

###

Target: recombinant BACE1 protein (Homo sapiens)
Sequence (P56817 46-501): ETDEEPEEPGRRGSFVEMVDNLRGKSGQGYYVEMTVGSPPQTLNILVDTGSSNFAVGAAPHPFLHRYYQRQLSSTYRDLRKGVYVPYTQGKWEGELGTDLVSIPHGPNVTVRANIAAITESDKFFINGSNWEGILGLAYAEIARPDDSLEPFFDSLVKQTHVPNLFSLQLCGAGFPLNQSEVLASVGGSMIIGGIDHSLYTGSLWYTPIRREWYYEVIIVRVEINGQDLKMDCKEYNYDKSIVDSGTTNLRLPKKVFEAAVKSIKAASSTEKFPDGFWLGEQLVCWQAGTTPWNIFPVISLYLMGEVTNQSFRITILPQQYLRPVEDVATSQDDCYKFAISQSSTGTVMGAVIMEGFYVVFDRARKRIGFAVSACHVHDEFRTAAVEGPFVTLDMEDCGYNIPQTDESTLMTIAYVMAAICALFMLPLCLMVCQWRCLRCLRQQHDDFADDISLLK
Assay: Biochemical FRET based assay
Details: recombinant BACE1 1 μg/ml, 120 minutes at room temperature, pH 5.0; read-out: Biochemical FRET based assay pIC50 (converted)
# IC50 values compiled below
Quick note: give the figure in nM, leave out the unit.

Past entries and their recorded results:
[[record]]
compound = "CC1(c2cc(-c3cncnc3)c(F)cc2F)N=C(N)COC1F (centres unmarked) [Compound 84]"
observable = "IC50"
reported_value = 22900

[[record]]
compound = "CCC1(c2cc(-c3cncc(C#N)c3)ccc2F)N=C(N)COC1C(F)(F)F (centres unmarked) [Compound 310]"
observable = "IC50"
reported_value = 3310


Find the recorded IC50 belonging to NC1=N[C@@](c2cccc(NC(=O)c3ncc(Cl)cc3Cl)c2)(C2CC2)[C@@H](F)OC1 [Compound 256] and report it.
42.7

Find the recorded IC50 belonging to CC1(c2cc(NC(=O)c3ncc(Cl)cc3F)ccc2F)N=C(N)COC1F (centres unmarked) [Compound 77] and report it.
52.5

Find the recorded IC50 belonging to NC1=N[C@@](c2cccc(NC(=O)c3cnc(OCC(F)(F)F)cn3)c2)(C2CC2)[C@H](C(F)(F)F)OC1 [Compound 289] and report it.
30.9

Find the recorded IC50 belonging to C[C@]1(c2cccc(NC(=O)c3ncc(C#N)cc3Cl)c2)N=C(N)CO[C@]1(F)C(F)(F)F [Compound 245] and report it.
21.9

Find the recorded IC50 belonging to NC1=N[C@@](c2cccc(-c3cncnc3)c2)(C2CC2)[C@H](C(F)(F)F)OC1 [Compound 269] and report it.
158

Find the recorded IC50 belonging to NC1=N[C@@](c2cccc(-c3cncnc3)c2)(C2CC2)[C@@H](F)OC1 [Compound 257] and report it.
891

Find the recorded IC50 belonging to CC1(c2cccc(-c3cncc(C#N)c3)c2)N=C(N)COC1C(F)(F)F (single isomer, unassigned) [Compound 205] and report it.
15800

Find the recorded IC50 belonging to CC1(c2cccc(-c3cncc(C#N)c3)c2)N=C(N)COC1C(F)(F)F (single isomer, unassigned) [Compound 207] and report it.
3470

Find the recorded IC50 belonging to COc1cncc(-c2cccc(C3(C)N=C(N)COC3F)c2)c1 (centres unmarked) [Compound 100] and report it.
1550

###

# melting point values compiled below
Quick note: give the figure in °C, leave out the unit.

[[record]]
molecule = "CC1(c2cccc(-c3cncnc3)c2)N=C(N)COC1F (stereo not drawn) [Compound 99]"
observable = "melting point"
reported_value = 204.3

[[record]]
molecule = "Cc1cc(Br)cnc1C(=O)Nc1ccc(F)c([C@@]2(C3CC3)N=C(N)CO[C@@H]2F)c1 [Compound 314]"
observable = "melting point"
reported_value = 132.03

[[record]]
molecule = "C[C@]1(c2cc(-c3cncc(Cl)c3)c(F)cc2F)N=C(N)CO[C@]1(F)C(F)(F)F [Compound 212]"
observable = "melting point"
reported_value = 145.3

[[record]]
molecule = "CC1(c2cc(-c3cncnc3)c(F)cc2F)COC2(CC2)C(N)=N1 (stereo not drawn) [Compound 72]"
observable = "melting point"
reported_value = 213.1

[[record]]
molecule = "CC1(c2cc(-c3cncnc3)c(F)cc2F)N=C(N)COC1F (stereo not drawn) [Compound 84]"
observable = "melting point"
reported_value = 195.3


API: the following record is the query input.
Find the recorded melting point belonging to COc1cnc(C(=O)Nc2ccc(F)c([C@]3(C4CC4)COCC(N)=N3)c2)cn1 [Compound 299] and report it.
196.4

###

Target: recombinant BACE1 protein (Homo sapiens)
Assay: Biochemical FRET based assay
Details: recombinant BACE1 1 μg/ml, 120 minutes at room temperature, pH 5.0; read-out: Biochemical FRET based assay pIC50 (converted)
# IC50 values compiled below
Quick note: give the figure in nM, leave out the unit.

Past entries and their recorded results:
[[record]]
molecule = "NC1=N[C@@](c2cccc(NC(=O)c3ncc(Cl)cc3F)c2)(C2CC2)[C@H](F)OC1 [Compound 249]"
output_unit = "nM"
reported_value = 219

[[record]]
molecule = "NC1=NC(c2cccc(NC(=O)c3ccc(Cl)cn3)c2)(C2CC2)COC1 (single isomer, unassigned) [Compound 195]"
output_unit = "nM"
reported_value = 53.7


Find the recorded IC50 belonging to CC1(c2cc(NC(=O)c3ncc(Cl)cc3Cl)ccc2F)N=C(N)COC1F (single isomer, unassigned) [Compound 128] and report it.
5750

###

Molecular target: recombinant BACE1 protein (Homo sapiens)
Experiment: Biochemical FRET based assay
Conditions: recombinant BACE1 1 μg/ml, 120 minutes at room temperature, pH 5.0; read-out: Biochemical FRET based assay pIC50 (converted)
# IC50 values compiled below
Quick note: give the figure in nM, leave out the unit.

Past entries and their recorded results:
[[record]]
compound = "Cc1ccc(C(=O)Nc2cccc(C3(C)N=C(N)COC3(F)C(F)(F)F)c2)nc1 (single isomer, unassigned) [Compound 194]"
reported_value = 2000

[[record]]
compound = "CCC1(c2cc(NC(=O)c3cnc(OC)cn3)ccc2F)N=C(N)COC1F (stereo not shown) [Compound 282]"
reported_value = 891

[[record]]
compound = "Cc1cc(Cl)cnc1C(=O)Nc1cccc([C@@]2(C3CC3)N=C(N)CO[C@@H]2F)c1"
reported_value = 38.9

[[record]]
compound = "C[C@]1(c2cc(NC(=O)c3cnc(OCC(F)(F)F)cn3)ccc2F)N=C(N)CO[C@@]1(F)C(F)(F)F"
reported_value = 43.7

[[record]]
compound = "COc1cnc(C(=O)Nc2ccc(F)c([C@@]3(C4CC4)N=C(N)CO[C@H]3C(F)(F)F)c2)cn1"
reported_value = 45.7

[[record]]
compound = "C[C@]1(c2cc(-c3cncc(Cl)c3)c(F)cc2F)N=C(N)CO[C@@]1(F)C(F)(F)F"
reported_value = 437


API: the following record is the query input.
Find the recorded IC50 belonging to `Cc1cc(Br)cnc1C(=O)Nc1cccc([C@@]2(C3CC3)N=C(N)CO[C@@H]2F)c1` and report it.
16.6

###

Target: P-gp (Homo sapiens, UniProt P08183)
Construct: expressed in transfected cells; host or cells: LLC-PK1 cells stably transduced with MDR1 (LLC-MDR1)
Sequence (P08183 whole entry): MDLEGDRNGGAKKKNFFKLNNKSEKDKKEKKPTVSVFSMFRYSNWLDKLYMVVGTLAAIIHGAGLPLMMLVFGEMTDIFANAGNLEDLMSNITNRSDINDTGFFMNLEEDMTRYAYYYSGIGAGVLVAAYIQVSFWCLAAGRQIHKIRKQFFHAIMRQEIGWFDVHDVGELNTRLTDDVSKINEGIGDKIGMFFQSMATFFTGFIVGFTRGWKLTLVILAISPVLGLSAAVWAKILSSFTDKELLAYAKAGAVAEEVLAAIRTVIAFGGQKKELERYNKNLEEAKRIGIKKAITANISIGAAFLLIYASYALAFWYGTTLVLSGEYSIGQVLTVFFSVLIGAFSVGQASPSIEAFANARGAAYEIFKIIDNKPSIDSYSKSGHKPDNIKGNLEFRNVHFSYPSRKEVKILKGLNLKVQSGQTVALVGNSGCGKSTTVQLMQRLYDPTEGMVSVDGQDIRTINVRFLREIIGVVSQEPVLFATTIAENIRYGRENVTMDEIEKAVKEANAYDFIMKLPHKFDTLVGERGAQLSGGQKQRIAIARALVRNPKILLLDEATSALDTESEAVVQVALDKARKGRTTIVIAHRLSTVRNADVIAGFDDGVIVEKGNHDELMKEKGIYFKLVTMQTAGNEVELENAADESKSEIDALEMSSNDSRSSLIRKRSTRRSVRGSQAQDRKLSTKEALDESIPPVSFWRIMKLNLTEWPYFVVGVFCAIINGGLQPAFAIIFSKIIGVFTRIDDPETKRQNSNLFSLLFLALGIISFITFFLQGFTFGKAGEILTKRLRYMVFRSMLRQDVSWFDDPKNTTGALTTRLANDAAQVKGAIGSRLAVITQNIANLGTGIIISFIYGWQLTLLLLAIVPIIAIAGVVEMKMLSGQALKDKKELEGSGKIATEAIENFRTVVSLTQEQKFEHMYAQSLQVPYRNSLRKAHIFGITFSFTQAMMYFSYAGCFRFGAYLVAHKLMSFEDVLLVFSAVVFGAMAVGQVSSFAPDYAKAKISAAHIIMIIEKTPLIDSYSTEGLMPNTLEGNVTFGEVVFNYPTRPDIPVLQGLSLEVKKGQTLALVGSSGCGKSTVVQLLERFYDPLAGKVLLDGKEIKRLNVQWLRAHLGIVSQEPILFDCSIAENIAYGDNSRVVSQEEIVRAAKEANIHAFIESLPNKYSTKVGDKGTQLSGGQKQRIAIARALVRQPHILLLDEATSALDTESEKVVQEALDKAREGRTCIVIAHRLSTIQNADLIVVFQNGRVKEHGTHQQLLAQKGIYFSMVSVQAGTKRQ
Test: Transepithelial transport of test compounds through LLC-MDR1 monolayers
Assay type: in vitro ADME
Details: pig, LLC-PK1; read-out: A to B (Apparent Permeability, Papp)
# Papp A→B at 120 min, 1 μM values compiled below
Quick note: give the figure in ×10⁻⁶ cm/s, leave out the unit.

Past entries and their recorded results:
[[record]]
molecule = "CC1(c2cc(-c3cncnc3)ccc2F)N=C(N)COC1C(F)(F)F (single isomer, unassigned) [Compound 106]"
reported_value = 18.2

[[record]]
molecule = "C[C@@]1(c2cc(-c3cncnc3)c(F)cc2F)N=C(N)CO[C@H]1F (single isomer, unassigned) [Compound 82]"
reported_value = 10.5

[[record]]
molecule = "C[C@]1(c2cccc(NC(=O)c3ccc(Cl)cn3)c2)N=C(N)CO[C@@H]1F (single isomer, unassigned) [Compound 86]"
reported_value = 13.2

[[record]]
molecule = "CC1(c2cccc(NC(=O)c3ccc(Cl)cn3)c2)N=C(N)COC1(F)C(F)(F)F (single isomer, unassigned) [Compound 113]"
reported_value = 9

[[record]]
molecule = "C[C@]1(c2cc(NC(=O)c3ccc(C#N)cn3)ccc2F)N=C(N)CO[C@H]1C(F)(F)F [Compound 169]"
reported_value = 10.5

[[record]]
molecule = "COc1cnc(C(=O)Nc2ccc(F)c([C@@]3(C)N=C(N)CO[C@H]3C(F)(F)F)c2)cn1 [Compound 166]"
reported_value = 13.7


Find the recorded Papp A→B at 120 min, 1 μM belonging to CC1(c2cc(NC(=O)c3ccc(Cl)cn3)ccc2F)N=C(N)COC1F (single isomer, unassigned) [Compound 134] and report it.
8.9

Find the recorded Papp A→B at 120 min, 1 μM belonging to COc1cncc(-c2cccc(C3(C)N=C(N)COC3F)c2)c1 (single isomer, unassigned) [Compound 93] and report it.
7.4

Find the recorded Papp A→B at 120 min, 1 μM belonging to COc1cncc(-c2cccc(C3(C)N=C(N)COC3(F)C(F)(F)F)c2)c1 (single isomer, unassigned) [Compound 118] and report it.
12

Find the recorded Papp A→B at 120 min, 1 μM belonging to COc1cncc(-c2cccc(C3(C)N=C(N)COC3F)c2)c1 (centres unmarked) [Compound 100] and report it.
7.6

Find the recorded Papp A→B at 120 min, 1 μM belonging to COc1cnc(C(=O)Nc2ccc(F)c([C@@]3(C4CC4)N=C(N)CO[C@@H]3F)c2)cn1 [Compound 216] and report it.
12
